Below, each of the compounds is paired with its reported melting point value.

# query: melting point of entry "CON=C(C(=O)O)c1nc(NC=O)c(Cl)cc1Cl" 164 to 165 °C

# query: melting point of entry "CCCCC(CCCC)n1c(=O)sc2c(=O)[nH]c(N)nc21" > 175 °C

# query: melting point of entry CC(=O)OC1C(C)OC(n2c(Br)nc3cc(Cl)c(Cl)cc32)C1OC(C)=O (stereo not given) 145 to 148 °C

# query: melting point of entry "O=[N+]([O-])c1ccc(-c2cc3c(Cl)ncnc3[nH]2)cc1" > 280 °C

# query: melting point of entry "FC(F)(F)Oc1cccc(-c2ccc3nnn(Cc4ccc5ncccc5c4)c3n2)c1" 140 to 142 °C

---

Below, each of the compounds is paired with its reported melting point value.

Previously resolved entries follow.
compound | assay-endpoint | test-value
CCCCOC(=O)CS(=O)(=O)C=C1SC=CS1 | melting point | 87 to 88 °C
CON=C(C)CCN1C(=O)c2ccccc2C1=O | melting point | 55 to 64 °C
O=C(O)c1cccc(-c2ccc3c(c2)N(c2ccc(Cl)cc2Cl)CCCC3)c1 | melting point | 131 to 132 °C

# query: melting point of entry "CSc1cc(C(C)(C)C)c(O)c(-c2nc3ccc(S(=O)(=O)C(F)(F)F)cc3[nH]2)c1C" 210 to 211 °C

# query: melting point of entry O=C1OC(O)c2cccc(O)c21 (stereo unspecified) 124 to 126 °C

# query: melting point of entry CC(C)CCN1C(=O)C(NC(=O)Oc2ccccc2)C(=O)N(c2ccccc2)c2ccccc21 (stereo unspecified) 70 °C

---

Below, each of the compounds is paired with its reported melting point value.

Previously resolved entries follow.
chemical-structure | test-value
c1cc(-c2cnco2)nc(-c2cnco2)c1 | 190 to 191 °C
Cc1cc2nc3ccc(C(N)=O)cn3c(=O)c2s1 | 375 to 377 °C

# query: melting point of entry "CC(=O)c1c(-c2ccncc2)[nH]c(-c2ccnc3ccccc23)c1C" 237 to 239 °C

# query: melting point of entry "C=CCOc1ccc(CC(=O)O)cc1" 61 to 62 °C

# query: melting point of entry "NNc1ccc2c(=O)n(Cc3ccccc3)cnc2c1" 165 to 169 °C

# query: melting point of entry "COc1ccc2cc3c(c(-c4ccc(C(F)(F)F)cc4)c2c1)CNC3=O" 219 to 221 °C

---

assay-endpoint: melting point

Previously resolved entries follow.
compound | melting point
O=C(NC1CC1)c1ccc(N2CCN(Cc3cnc4c(c3)[nH]c(=O)n3cccc43)CC2)cc1 | 270 to 272 °C
Cc1cc(C)cc(-c2[nH]c3ccc(-c4nccs4)cc3c2CCN)c1 | 98.5 to 100 °C
COC(=O)c1ccc(C(=O)CC(=O)c2ccc3c(c2)C(C)(C)CCC3(C)C)cc1 | 128 °C
Oc1ccc2c(c1-c1ccccc1)CCCC=C2c1ccc(OCCCCCSc2ccc(C(F)(F)F)cc2)cc1 | 189 °C

Now consider a different compound.
# query: melting point of entry CN1CC(N2CCc3ccccc3C2)ON=C1CC(c1ccccc1)c1ccccc1 (stereo not given) 163 °C

---

Below, each of the compounds is paired with its reported melting point value.

compound | melting point
CCOC(=O)c1cc2c(C)ccc(NS(=O)(=O)c3cccs3)c2[nH]1 | 180 to 181 °C
Cc1ccc(Nc2cc(NCc3ccccc3)c(C(=O)O)cc2S(N)(=O)=O)cc1 | 128 °C
COC(=O)c1ccc2cc(OC)c(OC)cc2c1-c1ccnc(Br)c1 | 146 to 148 °C

# query: melting point of entry CN1CC(Cc2ccccc2)OC1=O (stereo not given) 80 to 82 °C

# query: melting point of entry Cc1cc2c(nc1C(O)c1ccc(C(F)(F)F)cc1)CCCCC2 (stereo not given) 131 to 133 °C
